Reference source: patent US8399451B2

Field: pEC50. Provide a value for each of the molecules that follow.
# ASSAYED TARGET: S1P3 (Homo sapiens, UniProt Q99500)
# Sequence (Q99500 whole entry): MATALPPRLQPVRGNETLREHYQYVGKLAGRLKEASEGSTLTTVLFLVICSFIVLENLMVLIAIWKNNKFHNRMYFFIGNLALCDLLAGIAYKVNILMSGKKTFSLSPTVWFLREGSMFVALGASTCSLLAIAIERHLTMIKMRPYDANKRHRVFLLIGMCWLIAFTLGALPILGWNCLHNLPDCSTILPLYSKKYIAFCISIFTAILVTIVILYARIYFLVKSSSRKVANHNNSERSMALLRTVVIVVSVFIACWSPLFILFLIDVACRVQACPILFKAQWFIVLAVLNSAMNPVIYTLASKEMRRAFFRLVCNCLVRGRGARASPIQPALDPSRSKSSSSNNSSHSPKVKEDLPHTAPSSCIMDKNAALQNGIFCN
# ASSAY: Receptor [35S] GTPγS Binding Assay, membranes from EDG3-Ga15-bla HEK293T cells
# MEASUREMENT PARAMETERS: * detection limit 31,000 nM or 62,000 nM
# Description: Receptor [35S] GTPγS Binding Assays Membranes prepared from S1P1/CHO cells or EDG3-Ga15-bla HEK293T cells were added to the compound plate (40 μl/well, final protein 3 μg/well) with MULTIDROP®. [^35S]GTP (1250 Ci/mmol, Perkin Elmer) was diluted in assay buffer: 20 mM HEPES, pH7.5, 10 mM MgCl2, 150 mM NaCl, 1 mM EGTA, 1 mM DTT, 10 μM GDP, 0.1% fatty acid free BSA, and 10 μg/ml Saponin to 0.4 nM. 40 μl of the [^35S] GTP solution was added to the compound plate with a final concentration of 0.2 nM. […]
Lab note — pEC50 values are minus log10 of concentrations in M.

Please list pEC50 recorded for the molecule CCCc1c(-c2nc(-c3ccc(C(O)CN4CCCC(C(=O)N(CC)CC)C4)cc3)no2)noc1-c1ccccc1 (stereo not drawn) 5.46

Please list pEC50 recorded for the molecule O=C(O)[C@H]1CCCCN1CC(O)c1ccc(-c2noc(-c3onc(-c4ccccc4)c3C(F)(F)F)n2)cc1 (stereo partly drawn) 5.12

Please list pEC50 recorded for the molecule `Cc1ccc(-n2ncc(-c3nc(-c4ccc([C@H](O)CN5CCC[C@H](CC(=O)O)C5)cc4)no3)c2C(F)(F)F)nc1` 5.20

====

# ASSAYED TARGET: S1P1 (Homo sapiens)
# Sequence (P21453 whole entry): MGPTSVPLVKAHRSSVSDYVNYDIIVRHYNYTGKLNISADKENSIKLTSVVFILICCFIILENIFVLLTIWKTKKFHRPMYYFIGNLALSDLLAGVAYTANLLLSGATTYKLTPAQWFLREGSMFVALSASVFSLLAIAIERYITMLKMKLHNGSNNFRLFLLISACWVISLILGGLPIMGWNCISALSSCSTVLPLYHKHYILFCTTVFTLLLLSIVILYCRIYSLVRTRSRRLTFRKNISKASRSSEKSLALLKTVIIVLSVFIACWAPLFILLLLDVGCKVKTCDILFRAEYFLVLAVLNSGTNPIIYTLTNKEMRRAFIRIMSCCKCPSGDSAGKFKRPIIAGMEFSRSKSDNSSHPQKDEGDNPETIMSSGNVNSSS
# ASSAY: Receptor [35S] GTPγS Binding Assay, membranes from S1P1/CHO cells
# Type: biochemical
# Design: expressed in transfected cells; host or cells: S1P1/CHO cells
# MEASUREMENT PARAMETERS: membranes from S1P1/CHO cells; read-out: S1P1 GTPγS EC50
pEC50: −log10 of the molar value. Where a name gives a salt, the structure may show the parent alone.
Binary call on pEC50: fulfilled from 7 upward, not fulfilled beneath that.

API: above_or_equal(metric=pEC50, cutoff=7) for item O=C(O)[C@H]1CCCCN1CC(O)c1ccc(-c2noc(-c3onc(-c4ccccc4)c3C(F)(F)F)n2)cc1 (stereo partly shown) fulfilled

API: above_or_equal(metric=pEC50, cutoff=7) for item Cc1nc(-c2ccccc2)sc1-c1nc(-c2ccc(C(O)CN3CCC[C@H](C(=O)O)C3)cc2)no1 (stereo partly shown) not fulfilled

API: above_or_equal(metric=pEC50, cutoff=7) for item O=C(O)[C@H]1CCCN(CC(O)c2ccc(-c3noc(-c4cc(-c5ccc(Cl)cc5)on4)n3)cc2)C1 (stereo partly shown) not fulfilled

API: above_or_equal(metric=pEC50, cutoff=7) for item O=C(O)[C@H]1CCCN(C[C@@H](O)c2ccc(-c3noc(-c4cnn(-c5ncc(Cl)cc5Cl)c4C(F)(F)F)n3)cc2)C1 [Example 100, HCl] fulfilled

API: above_or_equal(metric=pEC50, cutoff=7) for item `O=C(O)[C@H]1CCCN(C[C@@H](O)c2ccc(-c3noc(-c4cnn(-c5ccccn5)c4C(F)(F)F)n3)cc2)C1` fulfilled

API: above_or_equal(metric=pEC50, cutoff=7) for item `O=C(O)C[C@H]1CCCN(C[C@@H](O)c2ccc(-c3noc(-c4ncn(-c5ccc(Cl)cc5)c4C(F)(F)F)n3)cc2)C1` fulfilled
